assay_protocol: Solubility in 0.1 N HCl
Assay type: physicochemical
setup_conditions: read-out: S
Would you mind labelling by solubility? At or over 100 µg/mL is 1 (yes), under is 0 (no).

Check out these entries, answers already filled in.
[[record]]
chemical_smiles = "CCCCCC[C@@H]1[C@H](O)[C@@H](O)[C@@H](Cc2ccccc2)N(Cc2cccc(C(=O)Nc3nc4ccccc4[nH]3)c2)C(=O)N1Cc1cccc(C(=O)Nc2nc3ccccc3[nH]2)c1"
label_class = "1 (yes)"

[[record]]
chemical_smiles = "CC(C)C[C@@H]1[C@H](O)[C@@H](O)[C@@H](Cc2ccccc2)N(Cc2cccc(C(=O)Nc3nc4ccccc4[nH]3)c2)C(=O)N1Cc1cccc(C(=O)Nc2nc3ccccc3[nH]2)c1"
label_class = "1 (yes)"

[[record]]
chemical_smiles = "CN(C)c1ccc(C[C@@H]2[C@H](O)[C@@H](O)[C@@H](Cc3ccc(N(C)C)cc3)N(Cc3cccc(C(=O)Nc4nc5ccccc5[nH]4)c3)C(=O)N2Cc2cccc(C(=O)Nc3nc4ccccc4[nH]3)c2)cc1"
label_class = "0 (no)"

[[record]]
chemical_smiles = "Nc1ccc(C[C@@H]2[C@H](O)[C@@H](O)[C@@H](Cc3ccc(N)cc3)N(Cc3cccc(C(=O)Nc4nc5ccccc5[nH]4)c3)C(=O)N2Cc2cccc(C(=O)Nc3nc4ccccc4[nH]3)c2)cc1"
label_class = "0 (no)"


API: the following record is the query input.
Has O=C(Nc1nc2ccccc2[nH]1)c1cccc(CN2C(=O)N(Cc3cccc(C(=O)Nc4nc5ccccc5[nH]4)c3)[C@H](Cc3ccccc3)[C@H](O)[C@@H](O)[C@H]2Cc2ccccc2)c1 a recorded solubility greater than or equal to 100 µg/mL?
0 (no)

---

assay_protocol: Antiviral activity was evaluated by whole cell based assay
Assay type: functional
Output class 1 for records whose IC90 is lower than 0.01 µM, class 0 for records at or above 0.01 µM.

Here are 2 compounds together with their reported answers.
[[record]]
chemical_smiles = "O=C(Nc1nc2ccccc2[nH]1)c1cccc(CN2C(=O)N(Cc3cccc(C(=O)Nc4nc5ccccc5[nH]4)c3)[C@H](C3CCCCC3)[C@H](O)[C@@H](O)[C@H]2C2CCCCC2)c1"
label_class = "class 0"

[[record]]
chemical_smiles = "O=C(Nc1nc2ccccc2[nH]1)c1cccc(CN2C(=O)N(Cc3cccc(C(=O)Nc4nc5ccccc5[nH]4)c3)[C@H](Cc3ccc(O)cc3)[C@H](O)[C@@H](O)[C@H]2Cc2ccc(O)cc2)c1"
label_class = "class 0"


Is it true that IC90 reported for CC[C@@H]1[C@H](O)[C@@H](O)[C@@H](Cc2ccccc2)N(Cc2cccc(C(=O)Nc3nc4ccccc4[nH]3)c2)C(=O)N1Cc1cccc(C(=O)Nc2nc3ccccc3[nH]2)c1 is less than 0.01 µM?
class 0

Please determine if COc1ccc(C[C@@H]2[C@H](O)[C@@H](O)[C@@H](Cc3ccc(OC)cc3)N(Cc3cccc(C(=O)Nc4nc5ccccc5[nH]4)c3)C(=O)N2Cc2cccc(C(=O)Nc3nc4ccccc4[nH]3)c2)cc1 is below 0.01 µM in terms of IC90.
class 0

Field: below-cutoff. Rule: recorded IC90 strictly less than 0.01 µM. Subject: O=C(Nc1nc2ccccc2[nH]1)c1cccc(CN2C(=O)N(Cc3cccc(C(=O)Nc4nc5ccccc5[nH]4)c3)[C@H](Cc3ccccc3)[C@H](O)[C@@H](O)[C@H]2Cc2ccccc2)c1
class 1

Criterion: IC90 strictly below 0.01 µM. Is it met by O=C(Nc1nc2ccccc2[nH]1)c1cccc(CN2C(=O)N(Cc3cccc(C(=O)Nc4nc5ccccc5[nH]4)c3)[C@H](Cc3ccc(OCc4ccccc4)cc3)[C@H](O)[C@@H](O)[C@H]2Cc2ccc(OCc3ccccc3)cc2)c1 ?
class 0

Report whether reported IC90 is lower than 0.01 µM (strictly) for CC(C)C[C@@H]1[C@H](O)[C@@H](O)[C@@H](CC(C)C)N(Cc2cccc(C(=O)Nc3nc4ccccc4[nH]3)c2)C(=O)N1Cc1cccc(C(=O)Nc2nc3ccccc3[nH]2)c1
class 0

API: query returns whether the compound falls strictly under 0.01 µM in IC90. Query: CN(C)c1ccc(C[C@@H]2[C@H](O)[C@@H](O)[C@@H](Cc3ccc(N(C)C)cc3)N(Cc3cccc(C(=O)Nc4nc5ccccc5[nH]4)c3)C(=O)N2Cc2cccc(C(=O)Nc3nc4ccccc4[nH]3)c2)cc1
class 1

Would you kindly verify if IC90 of CCCCCC[C@@H]1[C@H](O)[C@@H](O)[C@@H](CCCCCC)N(Cc2cccc(C(=O)Nc3nc4ccccc4[nH]3)c2)C(=O)N1Cc1cccc(C(=O)Nc2nc3ccccc3[nH]2)c1 is strictly less than 0.01 µM?
class 0

Item CCCCCC[C@@H]1[C@H](O)[C@@H](O)[C@@H](Cc2ccccc2)N(Cc2cccc(C(=O)Nc3nc4ccccc4[nH]3)c2)C(=O)N1Cc1cccc(C(=O)Nc2nc3ccccc3[nH]2)c1 : IC90 beneath 0.01 µM, strictly?
class 1

Please determine if CC[C@@H]1[C@H](O)[C@@H](O)[C@@H](CC)N(Cc2cccc(C(=O)Nc3nc4ccccc4[nH]3)c2)C(=O)N1Cc1cccc(C(=O)Nc2nc3ccccc3[nH]2)c1 is below 0.01 µM in terms of IC90.
class 0

FYI, the data here is from ChEMBL document CHEMBL1130807.
